B1: library; numbered along this chain (parent)
chain: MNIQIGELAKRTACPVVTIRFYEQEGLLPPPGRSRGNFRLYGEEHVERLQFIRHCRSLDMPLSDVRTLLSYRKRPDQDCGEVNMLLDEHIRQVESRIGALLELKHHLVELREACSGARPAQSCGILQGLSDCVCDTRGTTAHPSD

# Variants of: B1
# Measurement notes: sfGFP reporter fluorescence (15 h) (µM FITC); higher = stronger transcriptional activation
# Condition info: library round: Round 0; ligand: 30 µM Zn
Classification field. Basis: sfGFP reporter fluorescence. Definitions: label 0: < 0.1; label 1: ≥ 0.1 and < 0.6; label 2: ≥ 0.6

Residue change: R39V
Cat: label 0
--
Residue change: L58R
Cat: label 0
--
Residue change: L27Q
Cat: label 0
--
Residue change: C123T
Cat: label 0
--
Residue change: D64Q
Cat: label 2
--
Residue change: V108G
Cat: label 1
--
Residue change: G128D
Cat: label 1
--
Residue change: P143E
Cat: label 2
--
Residue change: D64V
Cat: label 2
--
Residue change: V46R
Cat: label 2
--
Residue change: G36C
Cat: label 2
--
Residue change: I90N
Cat: label 1
--
Residue change: Y41K
Cat: label 0
--
Residue change: L100A
Cat: label 2
--
Residue change: I3H
Cat: label 1
--
Residue change: L62T
Cat: label 1
--
Residue change: E43F
Cat: label 2
--
Residue change: S115A
Cat: label 1
--
Residue change: V108T
Cat: label 2
--
Residue change: V16C
Cat: label 1
--
Residue change: Y22M
Cat: label 0
